biological target: α-glucosidase from Saccharomyces cerevisiae (Saccharomyces cerevisiae, UniProt P53341); construct: purchased Sigma-Aldrich (Germany); test: Kinetics of α-glucosidase inhibition (Lineweaver–Burk, varying inhibitor and p-NPG concentrations); format: biochemical; conditions: Lineweaver–Burk plots, p-NPG 1–20 mM, enzyme 0.25 U/mL
Sequence (P53341 whole entry): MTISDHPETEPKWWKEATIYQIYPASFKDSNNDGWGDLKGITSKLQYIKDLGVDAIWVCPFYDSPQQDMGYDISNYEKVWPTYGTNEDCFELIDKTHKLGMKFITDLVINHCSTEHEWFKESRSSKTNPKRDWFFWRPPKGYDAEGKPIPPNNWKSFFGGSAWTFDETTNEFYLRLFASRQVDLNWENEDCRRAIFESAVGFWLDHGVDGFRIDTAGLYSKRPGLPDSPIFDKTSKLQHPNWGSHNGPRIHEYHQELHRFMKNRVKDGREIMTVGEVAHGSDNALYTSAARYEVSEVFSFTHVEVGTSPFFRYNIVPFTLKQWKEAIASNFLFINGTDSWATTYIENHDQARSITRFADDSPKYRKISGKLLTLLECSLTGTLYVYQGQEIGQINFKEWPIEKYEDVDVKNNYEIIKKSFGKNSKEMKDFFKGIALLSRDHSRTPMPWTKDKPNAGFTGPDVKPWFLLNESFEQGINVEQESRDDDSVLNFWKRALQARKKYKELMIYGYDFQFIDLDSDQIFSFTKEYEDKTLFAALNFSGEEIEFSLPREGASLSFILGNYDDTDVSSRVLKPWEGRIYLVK
outcome-measure: Inhibition Type (mode of α-glucosidase inhibition)

>  <compound>
O=c1oc2c(O)c(O)cc3c(=O)oc4c(O)c(O)cc1c4c23 [Ellagic acid, ellagic acid]

>  <assayed-target>
α-glucosidase from Saccharomyces cerevisiae (Saccharomyces cerevisiae, UniProt P53341)

>  <recorded-result>
mixed

$$$$
>  <compound>
O=C(O)c1cc(O)c(O)c(O)c1 [Gallic acid, gallic acid]

>  <assayed-target>
α-glucosidase from Saccharomyces cerevisiae (Saccharomyces cerevisiae, UniProt P53341)

>  <recorded-result>
mixed

$$$$
>  <compound>
O=C(OC[C@H]1OC(O)[C@@H]2OC(=O)c3cc(O)c(O)c(O)c3-c3c(cc(O)c(O)c3O)C(=O)O[C@H]2[C@@H]1OC(=O)c1cc(O)c(O)c(O)c1-c1c(O)c(O)c2oc(=O)c3cc(O)c(O)c4oc(=O)c1c2c43)c1cc(O)c(O)c(O)c1 (stereo partly drawn) [Terflavin A, terflavin A]

>  <assayed-target>
α-glucosidase from Saccharomyces cerevisiae (Saccharomyces cerevisiae, UniProt P53341)

>  <recorded-result>
mixed

$$$$
>  <compound>
C[C@H]1O[C@H](O[C@H]2[C@H](O)[C@@H](O)[C@@H](O[C@H]3[C@H](O)[C@@H](O)C(O)O[C@@H]3CO)O[C@@H]2CO)[C@H](O)[C@@H](O)[C@@H]1N[C@H]1C=C(CO)[C@@H](O)[C@H](O)[C@H]1O (stereo partly drawn) [Acarbose, acarbose, reference compound]

>  <assayed-target>
α-glucosidase from Saccharomyces cerevisiae (Saccharomyces cerevisiae, UniProt P53341)

>  <recorded-result>
competitive

$$$$
>  <compound>
O=C(/C=C/c1ccc(O)cc1)OC[C@H]1O[C@@H](Oc2c(-c3ccc(O)cc3)oc3cc(O)cc(O)c3c2=O)[C@H](O)[C@@H](O)[C@@H]1O [Tiliroside]

>  <assayed-target>
α-glucosidase from Saccharomyces cerevisiae (Saccharomyces cerevisiae, UniProt P53341)

>  <recorded-result>
mixed

$$$$
>  <compound>
O=C1O[C@H]2[C@@H]3OC(=O)c4cc(O)c(O)c(O)c4-c4c(O)c(O)c5oc(=O)c6c(c(O)c(O)c7oc(=O)c4c5c76)-c4c(cc(O)c(O)c4O)C(=O)OC[C@H]3OC(O)[C@@H]2OC(=O)c2cc(O)c(O)c(O)c2-c2c1cc(O)c(O)c2O (mixture of isomers) [Punicalagin, punicalagin]

>  <assayed-target>
α-glucosidase from Saccharomyces cerevisiae (Saccharomyces cerevisiae, UniProt P53341)

>  <recorded-result>
competitive

$$$$
